- system name: T1, Fas on Jurkat cell line (human blood cancer cell line in which Fas is always expressed) (human, UniProt P25445 26-335)
- T1 sequence (looked up): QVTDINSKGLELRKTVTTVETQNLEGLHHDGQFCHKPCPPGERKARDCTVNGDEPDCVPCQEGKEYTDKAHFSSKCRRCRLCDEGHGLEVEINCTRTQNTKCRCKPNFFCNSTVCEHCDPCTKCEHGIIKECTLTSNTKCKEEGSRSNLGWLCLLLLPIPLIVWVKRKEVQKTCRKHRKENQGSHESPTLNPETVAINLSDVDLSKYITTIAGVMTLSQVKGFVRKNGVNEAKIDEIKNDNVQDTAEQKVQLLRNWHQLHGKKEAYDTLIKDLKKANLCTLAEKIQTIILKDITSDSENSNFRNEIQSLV
- test method notes: cell-based or functional assay
Where no end group is shown, it is not given here.
property label: apoptosis level of Jurkat cells treated with Fas ligand (FasL) and peptide (%)
Only the number, expressed in %, is required.

Previously resolved entries follow.
YCNSTVCY (cysteine pairing not given here; also: Alexa647 label, attachment site not given here) [Control Peptide (CTRP)] | 31
YCDEHFAY (also: Alexa647 label, attachment site not given here) [Fas Blocking Peptide A (FBPA)] | 15
YCDEHFCY (cysteine pairing not given here; also: Alexa647 or Alexa 488 label, attachment site not given here) [Fas Blocking Peptide (FBP or FBP-8)] | 17

// moving on: another record for apoptosis level of Jurkat cells treated with Fas ligand (FasL) and peptide
What apoptosis level of Jurkat cells treated with Fas ligand (FasL) and peptide value was documented for this binder, YCDEHFY (also: Alexa647 label, attachment site not given here) [Fas Blocking Peptide 7 (FBP7)] ?
14
